Assay: NCI Yeast Anticancer Drug Screen. Data for the mlh1 rad18 strain (AID 175)
Details: S. cerevisiae mlh1 rad18 strain growth inhibition; at 50.0 µM; stronger effect = higher value
Procedure: Growth inhibition of yeast strains with defined genetic alterations is measured as a screen for potential anti-cancer activity. Selected strains with alterations in DNA damage repair or cell cycle control were exposed to compounds and growth inhibition was measured relative to vehicle treated controls. The strain used in this assay is mlh1 rad18
Compounds without any hit were thinned out: in the full panel of roughly 79,000, 15% have a hit.
resultType: growth inhibition (%)
Expressed in %, but write only the number.

Query: State its growth inhibition for this molecule: Cc1sc2cccc[n+]2c1C
Response: -14.4

Query: State its growth inhibition for this molecule: CN(C)CCN(C)C.[C-]#[O+].[C-]#[O+].[C-]#[O+].[C-]#[O+].[W+2]
Response: 0.05

Query: State its growth inhibition for this molecule: O=[N+]([O-])c1ccc(CCl)cc1
Response: 26.6

Query: State its growth inhibition for this molecule: O=[As]c1ccc(C(=O)O)cc1 (stereo unspecified)
Response: 23.2

Query: State its growth inhibition for this molecule: O=C1CC2OCC=C3CN4CCC56c7ccccc7N1C5C2C3CC46 (stereo unspecified)
Response: -9.25

Query: State its growth inhibition for this molecule: COc1ccc([As]=[As]c2ccc(OC)c(I)c2)cc1I (stereo unspecified)
Response: 99.7

###

assay: NCI Yeast Anticancer Drug Screen. Data for the cln2 rad14 strain (AID 165);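 note: 0% = growth equal to vehicle treated cultures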; settings: S. cerevisiae cln2 rad14 strain, at 50.0 µM, stronger effect = higher value
Compounds without any hit were thinned out: in the full panel of roughly 79,000, 15% have a hit.
Would you mind telling me the reported growth inhibition of each entry?
Expressed in %, but write only the number.

Query: State its growth inhibition for this compound: COc1cccc(N2C(=O)C3C(C2=O)C2(Cl)C(Cl)=C(Cl)C3(Cl)C2(Cl)Cl)c1 (configuration not stated)
Response: 10.1

Query: State its growth inhibition for this compound: COC1=CC(=O)OC(CCc2ccccc2)C1 (configuration not stated)
Response: -14.2

Query: State its growth inhibition for this compound: CC(=O)[O-].N.N.N.N.[Co+3].[O-][Cl+3]([O-])([O-])[O-].[OH3+]
Response: 16.1

Query: State its growth inhibition for this compound: CCN1C(C)N1P(=S)(OC1CC(C)(C)N(O)C(C)(C)C1)OC1CC(C)(C)N(O)C(C)(C)C1 (configuration not stated)
Response: 90.3

Query: State its growth inhibition for this compound: CC(C)OC(=S)S.[Cu+2]
Response: -31.6

Query: State its growth inhibition for this compound: [Be]=[Se]
Response: 2.1

Query: State its growth inhibition for this compound: CCOP(=O)(OCC)C(O)c1ccccc1Cl (configuration not stated)
Response: 35.5

Query: State its growth inhibition for this compound: O=[N+]([O-])c1ncccc1NCCN1CCCC1
Response: -29.3

Query: State its growth inhibition for this compound: Cc1ccc(NC(=O)C(=O)C2C(=O)NC(=O)NC2=O)cc1C
Response: 3.85

Query: State its growth inhibition for this compound: CNC(=O)Oc1ccc(C=Nc2cccc([N+](=O)[O-])c2)cc1
Response: 0.65

Query: State its growth inhibition for this compound: c1cc2n[pH]nc2cn1 (configuration not stated)
Response: 1.2

Query: State its growth inhibition for this compound: COC1OC2COc3ccccc3OC2C(N=C(N)N[N+](=O)[O-])C1OS (configuration not stated)
Response: -24.7
